This collection of values is drawn from patent US20110065632A1.

# TARGET_UNDER_TEST: hDA2
# METHOD: Dopamine-2 receptor radioligand binding assay
# CONDITION_SET: [3H]spiperone
RESULT_TYPE: Ki (nM)

[[record]]
chemical_smiles = "CC[C@@H]1NC(=O)[C@H](CCCCN)NC(=O)[C@@H](Cc2c[nH]c3ccccc23)NC(=O)[C@H](Cc2ccc(O)cc2)NC(=O)[C@@H](NC(=O)[C@@H](Cc2ccccc2)NC(=O)COCCOCCNC(=O)COCCOCCNC(=O)CSC[C@@H]2C[C@@H]3c4cccc5[nH]cc(c45)C[C@H]3N(C)C2)CSSC[C@@H](C(=O)N[C@H](C(N)=O)[C@@H](C)O)NC1=O"
target_under_test = "hDA2"
recorded_result = 278

[[record]]
chemical_smiles = "CC[C@@H]1NC(=O)[C@H](CCCCN)NC(=O)[C@@H](Cc2c[nH]c3ccccc23)NC(=O)[C@H](Cc2ccc(O)cc2)NC(=O)[C@@H](NC(=O)[C@@H](Cc2ccccc2)NC(=O)[C@@H](N)Cc2ccc(O)c(O)c2)CSSC[C@@H](C(=O)N[C@H](C(N)=O)[C@@H](C)O)NC1=O"
target_under_test = "hDA2"
recorded_result = 3000

[[record]]
chemical_smiles = "CC(C)[C@@H]1NC(=O)[C@H](CCCCN)NC(=O)[C@@H](Cc2c[nH]c3ccccc23)NC(=O)[C@H](Cc2ccc(O)c(I)c2)NC(=O)[C@@H](NC(=O)[C@@H](Cc2ccccc2)NC(=O)COCCOCCNC(=O)CSC[C@@H]2C[C@@H]3c4cccc5[nH]cc(c45)C[C@H]3N(C)C2)CSSC[C@@H](C(=O)N[C@H](C(N)=O)[C@@H](C)O)NC1=O"
target_under_test = "hDA2"
recorded_result = 217

[[record]]
chemical_smiles = "CCCN1C[C@H](CSCC(=O)N[C@H](Cc2ccccc2)C(=O)N[C@H]2CSSC[C@@H](C(=O)N[C@H](C(N)=O)[C@@H](C)O)NC(=O)[C@H]([C@@H](C)O)NC(=O)[C@H](CCCCN)NC(=O)[C@@H](Cc3c[nH]c4ccccc34)NC(=O)[C@H](Cc3ccc(O)c(I)c3)NC2=O)C[C@@H]2c3cccc4[nH]cc(c34)C[C@H]21"
target_under_test = "hDA2"
recorded_result = 25.2

[[record]]
chemical_smiles = "CCCN1C[C@H](CSCC(=O)N[C@H](Cc2ccccc2)C(=O)N[C@H]2CSSC[C@@H](C(=O)N[C@H](C(N)=O)[C@@H](C)O)NC(=O)[C@H](CC)NC(=O)[C@H](CCCCN)NC(=O)[C@@H](Cc3c[nH]c4ccccc34)NC(=O)[C@H](Cc3ccc(O)cc3)NC2=O)C[C@@H]2c3cccc4[nH]cc(c34)C[C@H]21"
target_under_test = "hDA2"
recorded_result = 25.5

[[record]]
chemical_smiles = "CC[C@@H]1NC(=O)[C@H](CCCCN)NC(=O)[C@@H](Cc2c[nH]c3ccccc23)NC(=O)[C@H](Cc2ccc(O)cc2)NC(=O)[C@@H](NC(=O)[C@@H](Cc2ccccc2)NC(=O)CN2CCN(CCNC(=O)CSC[C@@H]3C[C@@H]4c5cccc6[nH]cc(c56)C[C@H]4N(C)C3)CC2)CSSC[C@@H](C(=O)N[C@H](C(N)=O)[C@@H](C)O)NC1=O"
target_under_test = "hDA2"
recorded_result = 411

[[record]]
chemical_smiles = "CCCN1C[C@H](CSCC(=O)N[C@H](Cc2ccccc2)C(=O)NCCOCCOCC(=O)N[C@H](Cc2ccccc2)C(=O)N[C@H]2CSSC[C@@H](C(=O)N[C@H](C(N)=O)[C@@H](C)O)NC(=O)[C@H](C(C)C)NC(=O)[C@H](CCCCN)NC(=O)[C@@H](Cc3c[nH]c4ccccc34)NC(=O)[C@H](Cc3ccc(O)c(I)c3)NC2=O)C[C@@H]2c3cccc4[nH]cc(c34)C[C@H]21"
target_under_test = "hDA2"
recorded_result = 29.6

